Sequence of the target: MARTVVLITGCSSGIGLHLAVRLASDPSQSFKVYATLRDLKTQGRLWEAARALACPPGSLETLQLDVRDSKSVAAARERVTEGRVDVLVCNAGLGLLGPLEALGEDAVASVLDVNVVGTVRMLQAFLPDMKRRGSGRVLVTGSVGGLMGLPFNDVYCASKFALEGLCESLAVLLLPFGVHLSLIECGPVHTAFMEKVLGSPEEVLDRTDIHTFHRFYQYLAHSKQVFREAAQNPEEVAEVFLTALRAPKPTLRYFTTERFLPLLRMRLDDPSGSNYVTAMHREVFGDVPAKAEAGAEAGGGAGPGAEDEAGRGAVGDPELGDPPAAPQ
pIC50: −log10 of the molar value.
Measurement Type: pIC50

INPUT: Returns the measured pIC50 for the input molecule. Input: COc1cccc(N(C)C(=O)c2ccc(-c3ccc(OC)c(F)c3)s2)c1
OUTPUT: < 4.40

* * *

Tgt: 17-beta-hydroxysteroid dehydrogenase type 2 (Homo sapiens)
Assay Name: Inhibition of 17beta-HSD2 in human MDA-MB-231 cells using [3H]E2 as substrate after 6 hrs by HPLC analysis
Assay type: cell-based
Measurement Type: IC50 (nM)
Field format: number, assumed nM, no unit text.

INPUT: Name the recorded IC50 for COc1cccc(N(C)C(=O)c2ccc(-c3cccc(OC)c3F)s2)c1 .
OUTPUT: 105

* * *

Tgt: 17-beta-hydroxysteroid dehydrogenase type 2 (Homo sapiens)
Sequence (whole entry): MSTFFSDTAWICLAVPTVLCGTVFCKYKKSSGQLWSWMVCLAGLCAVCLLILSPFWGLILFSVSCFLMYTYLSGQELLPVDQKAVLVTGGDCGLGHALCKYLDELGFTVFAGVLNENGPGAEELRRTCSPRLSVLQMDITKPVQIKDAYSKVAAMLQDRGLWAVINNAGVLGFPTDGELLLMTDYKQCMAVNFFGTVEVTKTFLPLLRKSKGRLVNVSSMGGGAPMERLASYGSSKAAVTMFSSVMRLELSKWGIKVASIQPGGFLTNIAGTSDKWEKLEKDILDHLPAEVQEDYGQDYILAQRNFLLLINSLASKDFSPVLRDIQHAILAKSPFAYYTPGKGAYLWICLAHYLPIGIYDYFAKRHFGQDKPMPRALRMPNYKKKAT
Measurement Conditions: Placenta, Microsomal, at 1 µM
Description: Inhibition of 17beta-HSD2 in human placental microsomal fraction using [3H]E2 as substrate at 1 uM after 20 mins by HPLC analysis
Kindly state inhibition for each of the entries shown.
Reply numerically in %, unit not repeated.

INPUT: For COc1cccc(CCN(C)C(=O)c2ccc(-c3cccc(OC)c3)s2)c1 , what is its reported inhibition?
OUTPUT: 31

INPUT: Another: COc1cccc(-c2ccc(C(=O)N(C)c3cccc(C)c3)s2)c1
OUTPUT: 87

INPUT: Input COc1ccc(N(C)C(=O)c2ccc(-c3cccc(OC)c3F)s2)cc1
OUTPUT: 49

INPUT: Let us now turn to COc1cccc(CCN(C)C(=O)c2ccc(-c3ccccc3)s2)c1
OUTPUT: 18

* * *

Tgt: 17-beta-hydroxysteroid dehydrogenase type 2 (Homo sapiens)
Measurement Conditions: Placenta, Microsomal, at 1 µM
Outcome label depends on inhibition relative to 80%: at/above gives YES, below gives NO.

INPUT: For this compound, is measured inhibition 80% or higher? CN(Cc1cccc(O)c1)C(=O)c1ccc(-c2cccc(O)c2)s1
OUTPUT: NO

INPUT: Next entry: CN(Cc1cccc(O)c1)C(=O)c1cccc(-c2cccc(O)c2)c1
OUTPUT: NO

INPUT: Would you mind doing COc1cccc(CN(C)C(=O)c2ccc(-c3ccc(C#N)cc3)s2)c1 as well?
OUTPUT: NO

INPUT: Entry to check: COc1cccc(-c2ccc(C(=O)N(C)Cc3cccc(O)c3)s2)c1F
OUTPUT: YES

INPUT: Now consider CN(Cc1cccc(O)c1)C(=O)c1ccc(-c2ccccc2O)s1 and answer again.
OUTPUT: YES

INPUT: // next record COc1cccc(N(C)C(=O)c2ccc(-c3cccc(OC)c3F)s2)c1
OUTPUT: YES

INPUT: Try this compound next: COc1cccc(CN(C)C(=O)c2ccc(-c3cccc(OC)c3)s2)c1
OUTPUT: NO

INPUT: Item: CN(CCc1cccc(O)c1)C(=O)c1ccc(-c2cccc(F)c2)s1
OUTPUT: NO

INPUT: For COc1cccc(CCN(C)C(=O)c2ccc(-c3cccc(F)c3)s2)c1 then?
OUTPUT: NO

INPUT: Okay, and CN(CCc1cccc(O)c1)C(=O)c1ccc(-c2ccccc2)s1 ?
OUTPUT: NO

* * *

Tgt: 11-beta-hydroxysteroid dehydrogenase 1 (Homo sapiens, UniProt P28845)
Sequence (P28845 whole entry): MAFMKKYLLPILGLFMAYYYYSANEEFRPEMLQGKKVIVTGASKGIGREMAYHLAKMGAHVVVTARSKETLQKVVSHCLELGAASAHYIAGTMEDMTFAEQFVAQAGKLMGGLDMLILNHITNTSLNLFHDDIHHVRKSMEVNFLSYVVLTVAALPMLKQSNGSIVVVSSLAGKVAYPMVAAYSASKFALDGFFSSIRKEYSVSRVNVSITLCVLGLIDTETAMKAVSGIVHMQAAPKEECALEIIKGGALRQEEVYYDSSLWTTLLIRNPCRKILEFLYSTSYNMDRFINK
Assay Name: Inhibition of human recombinant 11beta-HSD1 expressed in HEK293 cell using [1,2-3H]Cortisone as substrate after 10 mins by scintillation counting analysis
Measurement Type: IC50 (µM)
Express it in µM; write the number only.

INPUT: Give the measured IC50 of COc1cccc(-c2ccc(C(=O)N(C)Cc3cccc(O)c3)s2)c1F .
OUTPUT: 1

* * *

Tgt: 17-beta-hydroxysteroid dehydrogenase type 1 (Homo sapiens)
Sequence (whole entry): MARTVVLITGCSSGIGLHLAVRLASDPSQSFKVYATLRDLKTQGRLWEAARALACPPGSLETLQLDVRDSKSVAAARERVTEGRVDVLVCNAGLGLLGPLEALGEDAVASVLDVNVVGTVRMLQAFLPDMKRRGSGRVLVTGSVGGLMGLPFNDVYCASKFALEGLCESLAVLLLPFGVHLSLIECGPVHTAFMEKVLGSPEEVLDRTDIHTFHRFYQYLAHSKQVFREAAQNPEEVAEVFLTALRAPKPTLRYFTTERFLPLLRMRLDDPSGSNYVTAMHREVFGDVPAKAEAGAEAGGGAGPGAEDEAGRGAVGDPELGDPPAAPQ
Measurement Conditions: at 1 µM
Description: Inhibition of 17beta-HSD1 in human placental cytosolic fraction using [3H]E1 as substrate after 10 mins at 1 uM by HPLC analysis
Measurement Type: inhibition

INPUT: Could you tell me which inhibition is on file for CN(Cc1cccc(O)c1)C(=O)c1ccc(-c2cccc(O)c2)s1 ?
OUTPUT: 21%

INPUT: Now this one: CN(Cc1cccc(O)c1)C(=O)c1ccc(-c2ccccc2O)s1
OUTPUT: 16%

INPUT: What about COc1cccc(CCN(C)C(=O)c2ccc(-c3ccccc3)s2)c1 ?
OUTPUT: 11%

INPUT: Now give it for CN(Cc1cccc(O)c1)C(=O)c1ccc(-c2cccc(F)c2)s1 too.
OUTPUT: 20%

INPUT: Query COc1cccc(CN(C)C(=O)c2ccc(-c3cccc(OC)c3)s2)c1 next
OUTPUT: < 10%

* * *

Consider the following molecules; for each one, report its RBA.
Tgt: Estrogen receptor beta (Homo sapiens) (UniProt Q92731)
Sequence (Q92731 whole entry): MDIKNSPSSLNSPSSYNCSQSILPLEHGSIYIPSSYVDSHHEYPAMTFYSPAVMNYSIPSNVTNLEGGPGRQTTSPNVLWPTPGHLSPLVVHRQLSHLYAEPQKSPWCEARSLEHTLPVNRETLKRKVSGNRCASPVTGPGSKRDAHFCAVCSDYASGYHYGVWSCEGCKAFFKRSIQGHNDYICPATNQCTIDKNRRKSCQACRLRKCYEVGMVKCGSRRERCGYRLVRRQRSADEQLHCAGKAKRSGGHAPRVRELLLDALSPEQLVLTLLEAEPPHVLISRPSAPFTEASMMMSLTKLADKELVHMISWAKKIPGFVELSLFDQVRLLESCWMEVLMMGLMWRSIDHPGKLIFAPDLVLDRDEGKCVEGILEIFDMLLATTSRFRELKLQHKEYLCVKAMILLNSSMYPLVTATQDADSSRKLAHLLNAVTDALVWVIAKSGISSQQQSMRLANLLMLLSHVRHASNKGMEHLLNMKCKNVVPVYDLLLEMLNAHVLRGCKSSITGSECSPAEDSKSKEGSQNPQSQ
Assay Name: Displacement of [3H]E2 from human recombinant ERbeta after 1 hr by scintillation counting analysis relative to E2

INPUT: I'd like to know its RBA. The molecule in question is COc1cccc(-c2ccc(C(=O)N(C)c3cccc(-c4ccccc4)c3)s2)c1
OUTPUT: < 0.1%

INPUT: Do the same for COc1cccc(N(C)C(=O)c2ccc(-c3cccc(C)c3F)s2)c1 please
OUTPUT: < 0.1%

INPUT: Now the molecule COc1cccc(-c2ccc(C(=O)N(C)c3cccc(C)c3)s2)c1F
OUTPUT: < 0.1%

INPUT: Moving on to the next molecule: COc1cccc(N(C)C(=O)c2ccc(-c3cccc(C)c3)s2)c1
OUTPUT: < 0.1%

INPUT: Try this molecule next: COc1cccc(N(C)C(=O)c2ccc(-c3ccccc3)s2)c1
OUTPUT: < 0.1%

INPUT: Request: COc1cccc(-c2ccc(C(=O)N(C)c3cccc(OC)c3)s2)c1
OUTPUT: < 0.1%

INPUT: Do the same for Cc1cccc(N(C)C(=O)c2ccc(-c3cccc(O)c3)s2)c1 please
OUTPUT: < 0.1%

INPUT: Follow-up item: COc1cccc(N(C)C(=O)c2ccc(-c3cccc(OC)c3F)s2)c1
OUTPUT: < 0.1%

INPUT: Query COc1cccc(N(C)C(=O)c2ccc(-c3ccc(OC)cc3OC)s2)c1 next
OUTPUT: < 0.1%

INPUT: Would you kindly repeat that for COc1ccc(-c2ccc(C(=O)N(C)c3cccc(OC)c3)s2)cc1 ?
OUTPUT: < 0.1%

INPUT: Next: COc1cccc(-c2ccc(C(=O)N(C)c3cccc(C)c3)s2)c1
OUTPUT: < 0.1%

INPUT: What about this molecule? COc1cccc(N(C)C(=O)c2ccc(-c3cccc(N(C)C)c3)s2)c1
OUTPUT: < 0.1%

INPUT: And what about the molecule COc1cccc(N(C)C(=O)c2ccc(-c3ccc(OC)c(F)c3)s2)c1 ?
OUTPUT: < 0.1%

INPUT: Another molecule to look at: COc1cccc(N(C)C(=O)c2ccc(-c3cccc(SC)c3)s2)c1
OUTPUT: < 0.1%

INPUT: COc1cccc(-c2ccc(C(=O)N(C)c3cccc(C(F)(F)F)c3)s2)c1 , same question.
OUTPUT: < 0.1%

INPUT: Lookup COc1cccc(N(C)C(=O)c2ccc(-c3c(F)ccc(OC)c3F)s2)c1
OUTPUT: < 0.1%

* * *

For each of the compounds below, state its inhibition.
Tgt: UniProtKB P37059
Sequence (whole entry): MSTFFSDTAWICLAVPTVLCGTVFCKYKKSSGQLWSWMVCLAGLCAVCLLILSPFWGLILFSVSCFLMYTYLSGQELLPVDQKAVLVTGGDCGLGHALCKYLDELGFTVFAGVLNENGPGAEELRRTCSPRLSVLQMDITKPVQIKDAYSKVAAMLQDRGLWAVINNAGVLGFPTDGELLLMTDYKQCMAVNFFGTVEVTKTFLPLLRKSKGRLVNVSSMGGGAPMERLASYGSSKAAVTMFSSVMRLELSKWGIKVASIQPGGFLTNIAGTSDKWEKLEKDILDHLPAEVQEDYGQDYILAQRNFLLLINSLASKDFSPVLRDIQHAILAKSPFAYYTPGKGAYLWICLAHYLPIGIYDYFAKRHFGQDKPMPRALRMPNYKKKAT
Measurement Conditions: Placenta, Microsomal, at 1 µM
Answer format: numeric, % implied, no suffix.

INPUT: # inhibition lookup, item CN(Cc1cccc(O)c1)C(=O)c1ccc(-c2cccc(F)c2)s1
OUTPUT: 71

INPUT: Now the same for COc1cccc(N(C)C(=O)c2ccc(-c3ccc(OC)cc3OC)s2)c1
OUTPUT: 77

INPUT: Further, for Cc1cccc(N(C)C(=O)c2ccc(-c3cccc(O)c3)s2)c1 ?
OUTPUT: 71

INPUT: Let us now turn to COc1cccc(N(C)C(=O)c2ccc(-c3ccc(OC)c(F)c3)s2)c1
OUTPUT: 72

INPUT: What do you have for COc1cccc(-c2ccc(C(=O)N(C)c3cccc(-c4ccccc4)c3)s2)c1 ?
OUTPUT: 83

INPUT: // next record COc1cccc(-c2ccc(C(=O)N(C)c3cccc(C(F)(F)F)c3)s2)c1
OUTPUT: 75

INPUT: Again, but for COc1cccc(N(C)C(=O)c2ccc(-c3ccccc3)s2)c1
OUTPUT: 82

INPUT: // repeat for COc1cccc(N(C)C(=O)c2ccc(-c3ccc(F)c(OC)c3)s2)c1 and report
OUTPUT: 66

INPUT: Also need CN(CCc1cccc(O)c1)C(=O)c1ccc(-c2cccc(O)c2)s1 , thanks.
OUTPUT: 37

INPUT: Same question, COc1ccc(-c2cccc(C(=O)N(C)Cc3cccc(OC)c3)c2)cc1 this time
OUTPUT: 13

INPUT: Next: COc1cccc(-c2cccc(C(=O)N(C)c3cccc(OC)c3)c2)c1
OUTPUT: 64

meta.source: ChEMBL document CHEMBL2321834
